Test details: Clearance in dog
Type: ADME, organism-based, Canis lupus familiaris
Applied conditions: in vivo
Reported endpoint: clearance (mL/min/kg)

Reference set, count: 2
Cc1nc(C)c(-c2ccc(-c3ccc([C@H](C)C(=O)O)cc3Cl)cc2)nc1C(N)=O
3
Cc1nc(C)c(-c2ccc(-c3ccc(CC(=O)O)cc3Cl)cc2)nc1C(N)=O
5.2

[a] Cc1nc(C)c(-c2ccc(-c3ccc(CC(=O)O)cc3Cl)c(Cl)c2)nc1C(N)=O
[b] Cc1nc(C)c(-c2ccc(-c3ccc([C@H](C)C(=O)O)cc3Cl)c(F)c2)nc1C(N)=O
Data request: Kindly compare a with b and tell me which has the lower clearance figure. Bench note: the answer is the label of the chosen record.
Data returned: b
(b: 1.9 mL/min/kg, a: 9.4 mL/min/kg)
